Below, each entry is listed with its recorded viability at 24 h, 20 μM.
assay: in vitro; type: cell-based, murine; conditions: mouse, Raw264.7 cell viability
Numeric answer only, unit % assumed.

compound: CC(=O)N[C@@H](CC(=O)O)C(=O)N[C@H](C(=O)N[C@@H](Cc1ccccc1)C(=O)N[C@@H](CCCNC(=N)N)C(=O)N[C@H](C(=O)N[C@@H](CCCNC(=N)N)C(=O)N[C@H](C(N)=O)[C@@H](C)O)C(C)C)C(C)C [7-mer VFT, NH2-Asp-Val-Phe-Arg-Val-Arg-Thr-COOH]
u: %
viability at 24 h, 20 μM: 71.1

compound: CC(=O)N[C@@H](CC(N)=O)C(=O)N[C@H](C(=O)N[C@@H](Cc1ccc(O)cc1)C(=O)N[C@@H](CCCNC(=N)N)C(=O)N[C@H](C(=O)N[C@@H](CCCNC(=N)N)C(=O)N[C@@H](CO)C(N)=O)C(C)C)C(C)C [7-mer NV, NH2-Asn-Val-Tyr-Arg-Val-Arg-Ser-COOH]
u: %
viability at 24 h, 20 μM: 74.8

compound: CSCC[C@H](NC(=O)[C@H](CCCNC(=N)N)NC(=O)[C@H](Cc1ccc(O)cc1)NC(=O)[C@H](CC(C)C)NC(=O)[C@H](CC(=O)O)NC(C)=O)C(=O)N[C@@H](CCCCN)C(=O)N[C@@H](CO)C(N)=O [7-mer MK, NH2-Asp-Leu-Tyr-Arg-Met-Lys-Ser-COOH]
u: %
viability at 24 h, 20 μM: 81.4

compound: CC(=O)N[C@H](C(=O)N[C@@H](CC(C)C)C(=O)N[C@@H](Cc1ccc(O)cc1)C(=O)N[C@@H](CCCNC(=N)N)C(=O)N[C@H](C(=O)N[C@@H](CCCNC(=N)N)C(=O)N[C@@H](CO)C(N)=O)C(C)C)C(C)C [7-mer (D→V), NH2-Val-Leu-Tyr-Arg-Val-Arg-Ser-COOH]
u: %
viability at 24 h, 20 μM: 56.8

Exercise: // viability at 24 h, 20 μM lookup, key: CC(=O)N[C@@H](C)C(=O)N[C@@H](CC(C)C)C(=O)N[C@@H](Cc1ccc(O)cc1)C(=O)N[C@@H](CCCNC(=N)N)C(=O)N[C@H](C(=O)N[C@@H](CCCNC(=N)N)C(=O)N[C@@H](CO)C(N)=O)C(C)C [7-mer Da, NH2-Ala-Leu-Tyr-Arg-Val-Arg-Ser-COOH]
Solution: 52.9

Exercise: // viability at 24 h, 20 μM lookup, key: CC(=O)N[C@@H](CC(=O)O)C(=O)N[C@@H](CC(C)C)C(=O)N[C@@H](Cc1ccc(O)cc1)C(=O)N[C@@H](C)C(=O)N[C@H](C(=O)N[C@@H](CCCNC(=N)N)C(=O)N[C@@H](CO)C(N)=O)C(C)C [7-mer Ra, NH2-Asp-Leu-Tyr-Ala-Val-Arg-Ser-COOH]
Solution: 99.5

Exercise: // viability at 24 h, 20 μM lookup, key: CC(=O)N[C@@H](CC(=O)O)C(=O)N[C@@H](CC(C)C)C(=O)N[C@@H](Cc1ccc(O)cc1)C(=O)N[C@@H](CCCNC(=N)N)C(=O)N[C@H](C(=O)N[C@@H](CCC(N)=O)C(=O)N[C@@H](CO)C(N)=O)C(C)C [7-mer (R2→Q), NH2-Asp-Leu-Tyr-Arg-Val-Gln-Ser-COOH]
Solution: 68.4

Exercise: // viability at 24 h, 20 μM lookup, key: CC(=O)N[C@@H](CC(=O)O)C(=O)N[C@@H](CC(C)C)C(=O)N[C@@H](Cc1ccc(O)cc1)C(=O)N[C@@H](CCCNC(=N)N)C(=O)N[C@H](C(=O)N[C@@H](C)C(=O)N[C@@H](CO)C(N)=O)C(C)C [7-mer R2a, NH2-Asp-Leu-Tyr-Arg-Val-Ala-Ser-COOH]
Solution: 94.6

Exercise: // viability at 24 h, 20 μM lookup, key: CC(=O)N[C@@H](CC(=O)O)C(=O)N[C@@H](C)C(=O)N[C@@H](Cc1ccc(O)cc1)C(=O)N[C@@H](CCCNC(=N)N)C(=O)N[C@H](C(=O)N[C@@H](CCCNC(=N)N)C(=O)N[C@@H](CO)C(N)=O)C(C)C [7-mer La, NH2-Asp-Ala-Tyr-Arg-Val-Arg-Ser-COOH]
Solution: 57.4

Exercise: // viability at 24 h, 20 μM lookup, key: CC[C@H](C)[C@H](NC(=O)[C@H](CCCNC(=N)N)NC(=O)[C@H](Cc1c[nH]c2ccccc12)NC(=O)[C@H](CC(C)C)NC(=O)[C@H](CC(=O)O)NC(C)=O)C(=O)N[C@@H](CCCNC(=N)N)C(=O)N[C@@H](CO)C(N)=O [7-mer WI, NH2-Asp-Leu-Trp-Arg-Ile-Arg-Ser-COOH]
Solution: 77.9

Exercise: // viability at 24 h, 20 μM lookup, key: CC(=O)N[C@@H](CC(=O)O)C(=O)N[C@@H](CC(C)C)C(=O)N[C@@H](Cc1ccc(O)cc1)C(=O)N[C@@H](CCCNC(=N)N)C(=O)N[C@@H](CC(C)C)C(=O)N[C@@H](CCCNC(=N)N)C(=O)N[C@@H](CO)C(N)=O [7-mer (V→L), NH2-Asp-Leu-Tyr-Arg-Leu-Arg-Ser-COOH]
Solution: 61.1

====

assay: in vitro; type: cell-based, murine; details: mouse, Raw264.7 cell viability
observedProperty: viability at 24 h, 20 μM (%)
Numeric answer only, unit % assumed.

Please review the following examples before continuing.
cpdSmiles: CC(=O)N[C@@H](CC(=O)O)C(=O)N[C@@H](CC(C)C)C(=O)N[C@@H](Cc1ccc(O)cc1)C(=O)N[C@@H](CCCNC(=N)N)C(=O)N[C@@H](CCC(N)=O)C(=O)N[C@@H](CCCCN)C(=O)N[C@@H](CO)C(N)=O
viability at 24 h, 20 μM (%): 77.7
//
cpdSmiles: CC(=O)N[C@@H](CC(=O)O)C(=O)N[C@@H](CC(C)C)C(=O)N[C@@H](Cc1ccc(O)cc1)C(=O)N[C@@H](CCCCN)C(=O)N[C@H](C(=O)N1CCC[C@H]1C(=O)N[C@@H](CO)C(N)=O)C(C)C
viability at 24 h, 20 μM (%): 81.2
//
cpdSmiles: CC(=O)N[C@@H](CC(=O)O)C(=O)N[C@@H](CC(C)C)C(=O)N[C@@H](Cc1ccc(O)cc1)C(=O)N[C@@H](CCCNC(=N)N)C(=O)N[C@@H](C)C(=O)N[C@@H](CCCNC(=N)N)C(=O)N[C@@H](CO)C(N)=O
viability at 24 h, 20 μM (%): 97.7
//
cpdSmiles: CC(=O)N[C@@H](CC(=O)O)C(=O)N[C@@H](CC(C)C)C(=O)N[C@@H](Cc1ccc(O)cc1)C(=O)N[C@@H](CCCNC(=N)N)C(=O)N[C@H](C(=O)N[C@@H](CCCNC(=N)N)C(=O)N[C@@H](CO)C(N)=O)C(C)C
viability at 24 h, 20 μM (%): 55.7
//
cpdSmiles: CC(=O)N[C@@H](CC(=O)O)C(=O)N[C@@H](CC(C)C)C(=O)N[C@@H](Cc1ccc(O)cc1)C(=O)N[C@@H](CCCNC(=N)N)C(=O)N[C@H](C(=O)N[C@@H](CCCNC(=N)N)C(=O)N[C@@H](C)C(N)=O)C(C)C
viability at 24 h, 20 μM (%): 93.1

Pending compound:
Exercise: // viability at 24 h, 20 μM lookup, key: CC(=O)N[C@@H](Cc1ccccc1)C(=O)N[C@@H](CC(C)C)C(=O)N[C@@H](Cc1ccc(O)cc1)C(=O)N[C@@H](CCCNC(=N)N)C(=O)N[C@H](C(=O)N[C@@H](CCCNC(=N)N)C(=O)N[C@@H](CO)C(N)=O)C(C)C
Solution: 61.9

====

assay: in vitro; format: cell-based, murine; conditions: mouse, Rar264.7 cell viability
Below, each entry is listed with its recorded viability at 24 h, 20 μM.
Numeric answer only, unit % assumed.

Please review the following examples before continuing.
compound: CC(=O)N[C@@H](CC(=O)O)C(=O)N[C@@H](CC(C)C)C(=O)N[C@@H](Cc1ccc(O)cc1)C(=O)N[C@@H](CCCNC(=N)N)C(=O)N[C@H](C(=O)N[C@@H](CCCNC(=N)N)C(=O)N[C@H](CO)C(N)=O)C(C)C [7-mer DS, NH2-Asp-Leu-Tyr-Arg-Val-Arg-(D-Ser)-COOH]
observedProperty: viability at 24 h, 20 μM
u: %
measuredResult: 107
--
compound: CC(=O)N[C@@H](CC(=O)O)C(=O)N[C@@H](CC(C)C)C(=O)N[C@@H](Cc1ccc(O)cc1)C(=O)N[C@H](CCCNC(=N)N)C(=O)N[C@H](C(=O)N[C@@H](CCCNC(=N)N)C(=O)N[C@@H](CO)C(N)=O)C(C)C [7-mer DR, NH2-Asp-Leu-Tyr-(D-Arg)-Val-Arg-Ser-COOH]
observedProperty: viability at 24 h, 20 μM
u: %
measuredResult: 100

Exercise: // viability at 24 h, 20 μM lookup, key: CC(=O)N[C@@H](CC(=O)O)C(=O)N[C@@H](CC(C)C)C(=O)N[C@@H](Cc1ccc(O)cc1)C(=O)N[C@@H](CCCNC(=N)N)C(=O)N[C@H](C(=O)N[C@H](CCCNC(=N)N)C(=O)N[C@@H](CO)C(N)=O)C(C)C [7-mer DR2]
Solution: 103

Exercise: // viability at 24 h, 20 μM lookup, key: CC(=O)N[C@H](CC(=O)O)C(=O)N[C@@H](CC(C)C)C(=O)N[C@@H](Cc1ccc(O)cc1)C(=O)N[C@@H](CCCNC(=N)N)C(=O)N[C@H](C(=O)N[C@@H](CCCNC(=N)N)C(=O)N[C@@H](CO)C(N)=O)C(C)C [7-mer DD, NH2-(D-Asp)-Leu-Tyr-Arg-Val-Arg-Ser-COOH]
Solution: 52.1

Exercise: // viability at 24 h, 20 μM lookup, key: CC(=O)N[C@@H](CC(=O)O)C(=O)N[C@@H](CC(C)C)C(=O)N[C@@H](Cc1ccc(O)cc1)C(=O)N[C@@H](CCCNC(=N)N)C(=O)N[C@H](C(=O)N[C@@H](CCCNC(=N)N)C(=O)N[C@@H](CO)C(N)=O)C(C)C [7-mer, NH2-Asp-Leu-Tyr-Arg-Val-Arg-Ser-COOH]
Solution: 55

Exercise: // viability at 24 h, 20 μM lookup, key: CC(=O)N[C@@H](CC(=O)O)C(=O)N[C@@H](CC(C)C)C(=O)N[C@@H](Cc1ccc(O)cc1)C(=O)N[C@@H](CCCNC(=N)N)C(=O)N[C@@H](C(=O)N[C@@H](CCCNC(=N)N)C(=O)N[C@@H](CO)C(N)=O)C(C)C [7-mer DV, NH2-Asp-Leu-Tyr-Arg-(D-Val)-Arg-Ser-COOH]
Solution: 57.9

Exercise: // viability at 24 h, 20 μM lookup, key: CC(=O)N[C@@H](CC(=O)O)C(=O)N[C@@H](CC(C)C)C(=O)N[C@H](Cc1ccc(O)cc1)C(=O)N[C@@H](CCCNC(=N)N)C(=O)N[C@H](C(=O)N[C@@H](CCCNC(=N)N)C(=O)N[C@@H](CO)C(N)=O)C(C)C [7-mer DY, NH2-Asp-Leu-(D-Tyr)-Arg-Val-Arg-Ser-COOH]
Solution: 108

Exercise: // viability at 24 h, 20 μM lookup, key: CC(=O)N[C@@H](CC(=O)O)C(=O)N[C@H](CC(C)C)C(=O)N[C@@H](Cc1ccc(O)cc1)C(=O)N[C@@H](CCCNC(=N)N)C(=O)N[C@H](C(=O)N[C@@H](CCCNC(=N)N)C(=O)N[C@@H](CO)C(N)=O)C(C)C [7-mer DL, NH2-Asp-(D-Leu)-Tyr-Arg-Val-Arg-Ser-COOH]
Solution: 101
